- Experimental system: UniProt:P56450
- Assay remarks: Agonist activity at mouse MC4R expressed in HEK293 cells assessed as induction of cAMP level at 100 uM incubated for 2 hr by alphaScreen assay relative to control
- Format: functional, cell-based
- Condition description: filed as agonist
Square brackets hold non-standard residues; d marks the D form. Peptide text beside a SMILES is read from it. dPhe(4-I) = N[C@H](Cc1ccc(I)cc1)C(=O)O; d2Nal = N[C@H](Cc1ccc2ccccc2c1)C(=O)O
Measured quantity: Activity (%)
Answer format: numeric, % implied, no suffix.

# count of solved cases: 3
compound="CC(=O)N[C@H](Cc1ccc(I)cc1)C(=O)N[C@@H](CCCNC(=N)N)C(=O)N[C@H](Cc1ccc(I)cc1)C(=O)N[C@H](Cc1ccc2ccccc2c1)C(N)=O (Ac-[dPhe(4-I)]R[dPhe(4-I)][d2Nal]-NH2)" experimental_system=UniProt:P56450 measured_quantity=Activity reported_value=40
compound="CC(=O)N[C@H](Cc1ccc2ccccc2c1)C(=O)N[C@@H](CCCNC(=N)N)C(=O)N[C@H](Cc1ccc2ccccc2c1)C(=O)N[C@H](Cc1ccc2ccccc2c1)C(N)=O (Ac-[d2Nal]R[d2Nal][d2Nal]-NH2)" experimental_system=UniProt:P56450 measured_quantity=Activity reported_value=45
compound="CC(=O)N[C@H](Cc1ccc(I)cc1)C(=O)N[C@@H](CCCNC(=N)N)C(=O)N[C@H](Cc1ccc2ccccc2c1)C(=O)N[C@H](Cc1ccc2ccccc2c1)C(N)=O (Ac-[dPhe(4-I)]R[d2Nal][d2Nal]-NH2)" experimental_system=UniProt:P56450 measured_quantity=Activity reported_value=45

Now, please, on to the next compound.
Specify the recorded Activity for CC(=O)N[C@H](Cc1ccc2ccccc2c1)C(=O)N[C@H](Cc1ccc2ccccc2c1)C(=O)N[C@@H](Cc1c[nH]c2ccccc12)C(=O)N[C@@H](CCCNC(=N)N)C(N)=O (Ac-[d2Nal][d2Nal]WR-NH2) , system: UniProt:P56450.
60

----------
Activity values by entry
- Experimental system: Melanocyte-stimulating hormone receptor (Mus musculus) (UniProt Q01727)
- Sequence (Q01727 whole entry, looked up): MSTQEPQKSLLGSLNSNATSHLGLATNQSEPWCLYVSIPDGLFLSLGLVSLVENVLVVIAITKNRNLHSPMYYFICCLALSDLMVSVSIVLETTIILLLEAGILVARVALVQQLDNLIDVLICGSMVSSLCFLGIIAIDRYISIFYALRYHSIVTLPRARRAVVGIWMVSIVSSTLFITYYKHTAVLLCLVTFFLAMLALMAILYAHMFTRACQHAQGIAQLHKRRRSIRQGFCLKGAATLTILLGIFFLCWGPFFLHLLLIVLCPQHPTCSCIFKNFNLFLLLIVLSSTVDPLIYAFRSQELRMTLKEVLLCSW
- Assay remarks: Partial agonist activity at mouse MC1R expressed in HEK293 cells assessed as induction of cAMP level at 100 uM incubated for 2 hr by alphaScreen assay relative to control
- Format: functional, cell-based
- Condition description: filed as partial agonist
Square brackets hold non-standard residues; d marks the D form. Peptide text beside a SMILES is read from it. dPhe(4-I) = N[C@H](Cc1ccc(I)cc1)C(=O)O; 2Nal = N[C@@H](Cc1ccc2ccccc2c1)C(=O)O; d2Nal = N[C@H](Cc1ccc2ccccc2c1)C(=O)O
Report only the number, with the unit % understood.

Study these solved cases before continuing.
molecule="CC(=O)N[C@H](Cc1ccc2ccccc2c1)C(=O)N[C@@H](CCCNC(=N)N)C(=O)N[C@H](Cc1ccc2ccccc2c1)C(=O)N[C@H](Cc1ccc2ccccc2c1)C(N)=O (Ac-[d2Nal]R[d2Nal][d2Nal]-NH2)" measured_quantity=Activity reported_value=85
molecule="CC(=O)N[C@H](Cc1ccc(I)cc1)C(=O)N[C@@H](CCCNC(=N)N)C(=O)N[C@@H](Cc1c[nH]c2ccccc12)C(=O)N[C@@H](CCCNC(=N)N)C(N)=O (Ac-[dPhe(4-I)]RWR-NH2)" measured_quantity=Activity reported_value=50
molecule="CC(=O)N[C@H](Cc1ccc2ccccc2c1)C(=O)N[C@@H](CCCNC(=N)N)C(=O)N[C@H](Cc1ccc2ccccc2c1)C(=O)N[C@@H](CCCNC(=N)N)C(N)=O (Ac-[d2Nal]R[d2Nal]R-NH2)" measured_quantity=Activity reported_value=60

Switching to the query record.
Write down Activity measured for item CC(=O)N[C@H](Cc1ccc2ccccc2c1)C(=O)N[C@@H](CCCNC(=N)N)C(=O)N[C@@H](Cc1ccc2ccccc2c1)C(=O)N[C@H](CCCCN)C(N)=O (Ac-[d2Nal]R[2Nal][dK]-NH2)
50

----------
- Experimental system: Melanocortin receptor 3 (Mus musculus, UniProt P33033)
- Sequence (P33033 whole entry): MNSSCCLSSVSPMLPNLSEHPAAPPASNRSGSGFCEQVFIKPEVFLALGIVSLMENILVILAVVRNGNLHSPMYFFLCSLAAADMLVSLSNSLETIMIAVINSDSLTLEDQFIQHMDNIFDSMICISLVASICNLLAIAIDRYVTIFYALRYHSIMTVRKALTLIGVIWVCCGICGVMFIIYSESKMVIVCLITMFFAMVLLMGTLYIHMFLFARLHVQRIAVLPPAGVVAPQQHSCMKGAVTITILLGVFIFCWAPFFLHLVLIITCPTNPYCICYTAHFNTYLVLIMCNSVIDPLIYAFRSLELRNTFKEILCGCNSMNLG
- Assay remarks: Antagonist activity at mouse melanocortin receptor 3 expressed in HEK293 cells assessed as inhibition of NDP-MSH-induced cAMP accumulation incubated for 2 hrs by cAMP Alpha-screen assay based Schild analysis
- Type: functional, cell-based
- Condition description: read-out: pA2 (converted)
Square brackets hold non-standard residues; d marks the D form. Peptide text beside a SMILES is read from it. dPhe(4-I) = N[C@H](Cc1ccc(I)cc1)C(=O)O; 2Nal = N[C@@H](Cc1ccc2ccccc2c1)C(=O)O; d2Nal = N[C@H](Cc1ccc2ccccc2c1)C(=O)O
Measured quantity: Kb

Consider the reported Kb for these compounds:
compound=CC(=O)N[C@H](Cc1ccc(I)cc1)C(=O)N[C@H](Cc1ccc2ccccc2c1)C(=O)N[C@@H](Cc1c[nH]c2ccccc12)C(=O)N[C@@H](CCCNC(=N)N)C(N)=O experimental_system="Melanocortin receptor 3 (Mus musculus, UniProt P33033)" reported_value="> 3.16 µM"
compound="CC(=O)N[C@H](Cc1ccc(I)cc1)C(=O)N[C@H](Cc1ccc2ccccc2c1)C(=O)N[C@@H](Cc1ccc2ccccc2c1)C(=O)N[C@H](CCCCN)C(N)=O (Ac-[dPhe(4-I)][d2Nal][2Nal][dK]-NH2)" experimental_system="Melanocortin receptor 3 (Mus musculus, UniProt P33033)" reported_value="> 3.16 µM"
compound="CC(=O)N[C@H](Cc1ccc(I)cc1)C(=O)N[C@H](Cc1ccc2ccccc2c1)C(=O)N[C@H](Cc1ccc2ccccc2c1)C(=O)N[C@H](CCCCN)C(N)=O (Ac-[dPhe(4-I)][d2Nal][d2Nal][dK]-NH2)" experimental_system="Melanocortin receptor 3 (Mus musculus, UniProt P33033)" reported_value="> 3.16 µM"

Return reported Kb. Input compound: CC(=O)N[C@H](Cc1ccc2ccccc2c1)C(=O)N[C@H](Cc1ccc2ccccc2c1)C(=O)N[C@H](Cc1ccc2ccccc2c1)C(=O)N[C@@H](CCCNC(=N)N)C(N)=O
> 3.16 µM

Fill in Kb for record CC(=O)N[C@H](Cc1ccc2ccccc2c1)C(=O)N[C@H](Cc1ccc2ccccc2c1)C(=O)N[C@H](Cc1ccc2ccccc2c1)C(=O)N[C@H](CCCCN)C(N)=O (Ac-[d2Nal][d2Nal][d2Nal][dK]-NH2)
> 3.16 µM

----------
- Experimental system: Melanocortin receptor 4 (Mus musculus, UniProt P56450)
- Sequence (P56450 whole entry): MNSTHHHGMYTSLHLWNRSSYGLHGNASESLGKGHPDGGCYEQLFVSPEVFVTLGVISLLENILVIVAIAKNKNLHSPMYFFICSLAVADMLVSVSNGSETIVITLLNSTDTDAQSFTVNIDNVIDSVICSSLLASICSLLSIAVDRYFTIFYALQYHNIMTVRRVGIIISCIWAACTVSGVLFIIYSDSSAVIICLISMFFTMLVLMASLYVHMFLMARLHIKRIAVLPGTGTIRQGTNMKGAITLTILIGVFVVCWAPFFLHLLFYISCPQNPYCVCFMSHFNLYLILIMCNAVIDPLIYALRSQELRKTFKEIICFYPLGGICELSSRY
- Assay remarks: Antagonist activity at mouse melanocortin receptor 4 expressed in HEK293 cells assessed as inhibition of NDP-MSH-induced cAMP accumulation incubated for 2 hrs by cAMP Alpha-screen assay based Schild analysis
- Format: functional, cell-based
- Condition description: read-out: pA2 (converted)
Square brackets hold non-standard residues; d marks the D form. Peptide text beside a SMILES is read from it. dPhe(4-I) = N[C@H](Cc1ccc(I)cc1)C(=O)O; 2Nal = N[C@@H](Cc1ccc2ccccc2c1)C(=O)O; d2Nal = N[C@H](Cc1ccc2ccccc2c1)C(=O)O
Measured quantity: Kb
Please format your answer as a value with the unit trailing.

compound="CC(=O)N[C@H](Cc1ccc(I)cc1)C(=O)N[C@@H](CCCNC(=N)N)C(=O)N[C@H](Cc1ccc2ccccc2c1)C(=O)N[C@H](Cc1ccc2ccccc2c1)C(N)=O (Ac-[dPhe(4-I)]R[d2Nal][d2Nal]-NH2)" reported_value="0.2 µM"
compound="CC(=O)N[C@H](Cc1ccc2ccccc2c1)C(=O)N[C@H](Cc1ccc2ccccc2c1)C(=O)N[C@@H](Cc1c[nH]c2ccccc12)C(=O)N[C@H](CCCCN)C(N)=O (Ac-[d2Nal][d2Nal]W[dK]-NH2)" reported_value="0.2 µM"

Shift focus to the following entry.
Recall the reported Kb of CC(=O)N[C@H](Cc1ccc(I)cc1)C(=O)N[C@@H](CCCNC(=N)N)C(=O)N[C@@H](Cc1ccc2ccccc2c1)C(=O)N[C@H](Cc1ccc2ccccc2c1)C(N)=O (Ac-[dPhe(4-I)]R[2Nal][d2Nal]-NH2) on Melanocortin receptor 4 (Mus musculus, UniProt P56450) and write it down.
0.2 µM
